target system: UniProtKB P22460
method description: Kv1.5 currents in Xenopus oocytes, two-microelectrode voltage clamp
protocol conditions: human Kv1.5 expressed in Xenopus laevis oocytes; voltage jumps 500 ms to 0 mV and 40 mV; room temperature; Hill equation
pIC50: −log10 of the molar value.
Recorded pIC50, one value per entry.
quantity name: pIC50

{"columns": ["compound", "quantitative result"],
 "data": [
  ["Cc1ccc(S(=O)(=O)Nc2ccccc2C(=O)N(Cc2cccc(C)n2)CC2CCCO2)cc1 (stereo not shown)", 5.85],
  ["Cc1ccc(S(=O)(=O)Nc2ccccc2C(=O)N(Cc2ccccc2)CC2CCCCC2)cc1", 5.59],
  ["CCc1nc(C)c(CN(Cc2ccccc2)C(=O)c2ccccc2NS(=O)(=O)c2ccc(C)cc2)[nH]1", 5.41],
  ["CCC(NC(=O)c1cccc(C)c1NS(=O)(=O)c1ccc(Cl)cc1)c1ccccc1 (stereo not shown)", 5.60]
]}

----------
Each item that follows carries a reported IC50.
target system: Human Kv1.5 channels (Homo sapiens)
Sequence (P22460 whole entry): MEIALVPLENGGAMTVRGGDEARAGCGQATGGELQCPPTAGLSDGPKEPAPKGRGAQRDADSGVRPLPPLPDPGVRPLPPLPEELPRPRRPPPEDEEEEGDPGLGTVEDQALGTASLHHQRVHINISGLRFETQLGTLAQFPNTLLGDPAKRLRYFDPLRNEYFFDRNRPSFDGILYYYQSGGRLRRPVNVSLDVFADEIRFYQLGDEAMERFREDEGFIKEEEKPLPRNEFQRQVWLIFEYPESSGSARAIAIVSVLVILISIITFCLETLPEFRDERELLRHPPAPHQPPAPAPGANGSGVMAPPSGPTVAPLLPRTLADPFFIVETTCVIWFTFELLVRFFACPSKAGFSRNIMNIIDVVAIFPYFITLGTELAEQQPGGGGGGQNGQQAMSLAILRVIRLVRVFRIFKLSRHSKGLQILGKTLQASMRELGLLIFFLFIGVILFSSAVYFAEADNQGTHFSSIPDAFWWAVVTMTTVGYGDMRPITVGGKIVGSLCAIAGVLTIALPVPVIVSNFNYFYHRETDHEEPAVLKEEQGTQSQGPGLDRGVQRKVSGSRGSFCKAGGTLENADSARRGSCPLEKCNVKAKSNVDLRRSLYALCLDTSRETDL
method description: Kv1.5 currents in Xenopus oocytes, two-microelectrode voltage clamp
protocol conditions: human Kv1.5 expressed in Xenopus laevis oocytes; voltage jumps 500 ms to 0 mV and 40 mV; room temperature; Hill equation
Method: Human Kv1.5 channels were expressed in Xenopus oocytes. For this purpose, firstly ooytes were isolated from Xenopus laevis and were defolliculated. Kv1.5-encoding RNA which had been synthesized in vitro was then injected into these oocytes. After 1-7 days of Kv1.5 protein expression, the Kv1.5 currents were measured on the oocytes by the two-microelectrode voltage clamp technique. The Kv1.5 channels were for this purpose usually activated with voltage jumps lasting 500 ms to 0 mV and 40 mV. […]

{"columns": ["compound", "IC50, nM"],
 "data": [
  ["Cc1ccc(S(=O)(=O)Nc2ccc(F)cc2C(=O)N(Cc2ccc(F)cc2)Cc2nccn2C)cc1", 900],
  ["CC[C@H](NC(=O)c1cc(Cl)ccc1NS(=O)(=O)c1ccccc1)c1ccccc1", 2800],
  ["Cc1ccc(S(=O)(=O)Nc2ccccc2C(=O)N(Cc2ccccc2)CC2CCCO2)cc1 (stereo not shown)", 1100],
  ["COc1ccc(NS(=O)(=O)c2ccc(C)cc2)c(C(=O)NC(c2cccnc2)C2CC2)c1 (stereo not shown)", 700]
]}

----------
target system: Human Kv1.5 channels (Homo sapiens)
method description: Kv1.5 currents in Xenopus oocytes, two-microelectrode voltage clamp
protocol conditions: human Kv1.5 expressed in Xenopus laevis oocytes; voltage jumps 500 ms to 0 mV and 40 mV; room temperature; Hill equation
pIC50: −log10 of the molar value.

{"columns": ["compound", "target system", "pIC50"],
 "data": [
  ["CC[C@H](NC(=O)c1ccccc1NS(=O)(=O)c1cccc2c(N(C)C)cccc12)c1ccccc1 [Example 65]", "Human Kv1.5 channels (Homo sapiens)", 5.32],
  ["Cc1ccc(S(=O)(=O)Nc2ccc(F)cc2C(=O)N(Cc2ccccc2)Cc2cccc(C)n2)cc1 [Example 101]", "Human Kv1.5 channels (Homo sapiens)", 6.05],
  ["CC[C@H](NC(=O)c1ccccc1NS(=O)(=O)c1ccccc1)c1ccccc1 [Example 69]", "Human Kv1.5 channels (Homo sapiens)", 5.89],
  ["COc1ccc(S(=O)(=O)Nc2ccccc2C(=O)N(Cc2ccccc2)Cc2cccnc2)cc1 [Example 50]", "Human Kv1.5 channels (Homo sapiens)", 6.15]
]}

----------
// reported pIC50 per item
target system: UniProt:P22460
method description: Kv1.5 currents in Xenopus oocytes, two-microelectrode voltage clamp
protocol conditions: human Kv1.5 expressed in Xenopus laevis oocytes; voltage jumps 500 ms to 0 mV and 40 mV; room temperature; Hill equation
pIC50: −log10 of the molar value.
quantity name: pIC50

{"columns": ["compound", "quantity name", "bound operator", "quantitative result"],
 "data": [
  ["Cc1ccc(S(=O)(=O)Nc2ccccc2C(=O)N(CCc2cccnc2)CC2CC2)cc1 [Example 49]", "pIC50", "=", 5.20],
  ["COc1cccc(S(=O)(=O)Nc2ccccc2C(=O)N(Cc2ccccc2)Cc2cccnc2)c1 [Example 70]", "pIC50", "=", 5.42],
  ["Cc1ccc(S(=O)(=O)Nc2ccccc2C(=O)N(Cc2ccccc2)Cc2ccc[nH]2)cc1 [Example 86]", "pIC50", "=", 5.74],
  ["Cc1ccc(S(=O)(=O)Nc2ccccc2C(=O)N(Cc2cccnc2)Cc2cccc(C)n2)cc1 [Example 118]", "pIC50", "=", 5.66],
  ["O=C(NC1CCCCC1)c1cc(Cl)ccc1NS(=O)(=O)c1ccccc1 [Example 17]", "pIC50", "=", 5.12],
  ["Cc1ccc(S(=O)(=O)Nc2ccccc2C(=O)N(Cc2ccccc2)Cc2ccn[nH]2)cc1 [Example 112]", "pIC50", "=", 6.30],
  ["Cc1ccc(S(=O)(=O)Nc2ccc(F)cc2C(=O)N(Cc2ccccc2)CC2CCCO2)cc1 (stereo not drawn) [Example 100]", "pIC50", "=", 5.80],
  ["CC[C@H](NC(=O)c1ccccc1NS(=O)(=O)CCC(C)C)c1ccccc1 [Example 74]", "pIC50", "=", 5.77],
  ["Cc1cccc(NS(=O)(=O)c2ccc(Cl)cc2)c1C(=O)NC(C)c1ccccc1 (stereo not drawn) [Example 23]", "pIC50", "=", 5.30],
  ["CC[C@H](NC(=O)c1ccccc1NS(=O)(=O)c1cccc(OC)c1)c1ccccc1 [Example 63]", "pIC50", "=", 5.77],
  ["Cc1ccc(S(=O)(=O)Nc2ccccc2C(=O)N(Cc2ccc(F)cc2)Cc2nccn2C)cc1 [Example 109]", "pIC50", "=", 5.96],
  ["COc1ccc(S(=O)(=O)Nc2c(C)cccc2C(=O)NC(C)c2ccccc2)cc1 (stereo not drawn) [Example 19]", "pIC50", "=", 5.38],
  ["CCCCS(=O)(=O)Nc1ccc(C)cc1C(=O)NC(c1cccc(OC)n1)C1CC1 (stereo not drawn) [Example 127]", "pIC50", "=", 5.48],
  ["CC[C@H](NC(=O)c1ccccc1NS(=O)(=O)c1ccc(C(F)(F)F)cc1)c1ccccc1 [Example 66]", "pIC50", "=", 5.40],
  ["Cc1ccc(S(=O)(=O)Nc2ccccc2C(=O)N(Cc2cccc(C)n2)Cc2ccco2)cc1 [Example 121]", "pIC50", "=", 6.22],
  ["Cc1ccc(NS(=O)(=O)c2ccccc2)c(C(=O)NC2CCCCC2)c1 [Example 21]", "pIC50", "=", 5.28],
  ["Cc1ccc(S(=O)(=O)Nc2ccccc2C(=O)N(CCCn2ccnc2)Cc2ccccc2)cc1 [Example 32]", "pIC50", "=", 5.07],
  ["CCC(Cc1ccccc1)NC(=O)c1ccccc1NS(=O)(=O)c1ccccc1 (stereo not drawn) [Example 52]", "pIC50", "=", 5.52],
  ["Cc1ccc(S(=O)(=O)Nc2ccccc2C(=O)N(Cc2ccccc2)Cc2cccn2C)cc1 [Example 83]", "pIC50", "=", 5.72],
  ["CC[C@H](NC(=O)c1ccccc1NS(=O)(=O)c1ccc(C)cc1)c1ccccc1 [Example 60]", "pIC50", "=", 6.15],
  ["Cc1ccc(S(=O)(=O)Nc2cc(C)ccc2C(=O)N(Cc2ccccc2)Cc2nccn2C)cc1 [Example 40]", "pIC50", "=", 6.10],
  ["Cc1ccc(S(=O)(=O)Nc2ccccc2C(=O)N(Cc2nccs2)CC2CCCCC2)cc1 [Example 119]", "pIC50", "=", 5.57],
  ["COc1ccc([C@H](C)NC(=O)c2cc(OC)ccc2NS(=O)(=O)c2ccc(C)cc2)cc1 [Example 97]", "pIC50", "=", 6.05],
  ["CCCCS(=O)(=O)Nc1ccccc1C(=O)N[C@@H](CC)c1ccccc1 [Example 58]", "pIC50", "<", 5.00],
  ["COc1ccc(NS(=O)(=O)c2ccc(C)cc2)c(C(=O)N(Cc2ccccc2)Cc2nccn2C)c1 [Example 41]", "pIC50", "=", 5.72],
  ["COc1cccc([C@H](C)NC(=O)c2cc(OC)ccc2NS(=O)(=O)c2ccc(C)cc2)c1 [Example 96]", "pIC50", "=", 6.00],
  ["CC[C@H](NC(=O)c1cc(OC)ccc1NS(=O)(=O)C(C)C)c1ccccc1 [Example 149]", "pIC50", "=", 5.66],
  ["C[C@@H](c1ccccc1)N(C)C(=O)c1ccccc1NS(=O)(=O)c1ccccc1 [Example 98]", "pIC50", "=", 5.70],
  ["CC[C@H](NC(=O)c1cc(F)ccc1NS(=O)(=O)c1ccc(C)cc1)c1ccccc1 [Example 115]", "pIC50", "=", 5.62],
  ["CCCC(NC(=O)c1cc(OC)ccc1NS(=O)(=O)c1ccc(C)cc1)c1ccccc1 (stereo not drawn) [Example 92]", "pIC50", "=", 6.05],
  ["Cc1ccc(S(=O)(=O)Nc2ccccc2C(=O)N(Cc2nn(C)cc2Cl)CC2CC2)cc1 [Example 111]", "pIC50", "=", 5.77],
  ["CC[C@H](NC(=O)c1cc(O)ccc1NS(=O)(=O)c1ccc(C)cc1)c1ccccc1 [Example 152]", "pIC50", "=", 5.59],
  ["CCN(C(=O)c1cc(Cl)ccc1NS(=O)(=O)c1ccccc1)C1CCCCC1 [Example 18]", "pIC50", "=", 5.17]
]}
